Molecular target: cynomolgus LIV-1 (cynomolgus, UniProt A0A2K5WH46 30-741)
Sequence (A0A2K5WH46 entry or part of it): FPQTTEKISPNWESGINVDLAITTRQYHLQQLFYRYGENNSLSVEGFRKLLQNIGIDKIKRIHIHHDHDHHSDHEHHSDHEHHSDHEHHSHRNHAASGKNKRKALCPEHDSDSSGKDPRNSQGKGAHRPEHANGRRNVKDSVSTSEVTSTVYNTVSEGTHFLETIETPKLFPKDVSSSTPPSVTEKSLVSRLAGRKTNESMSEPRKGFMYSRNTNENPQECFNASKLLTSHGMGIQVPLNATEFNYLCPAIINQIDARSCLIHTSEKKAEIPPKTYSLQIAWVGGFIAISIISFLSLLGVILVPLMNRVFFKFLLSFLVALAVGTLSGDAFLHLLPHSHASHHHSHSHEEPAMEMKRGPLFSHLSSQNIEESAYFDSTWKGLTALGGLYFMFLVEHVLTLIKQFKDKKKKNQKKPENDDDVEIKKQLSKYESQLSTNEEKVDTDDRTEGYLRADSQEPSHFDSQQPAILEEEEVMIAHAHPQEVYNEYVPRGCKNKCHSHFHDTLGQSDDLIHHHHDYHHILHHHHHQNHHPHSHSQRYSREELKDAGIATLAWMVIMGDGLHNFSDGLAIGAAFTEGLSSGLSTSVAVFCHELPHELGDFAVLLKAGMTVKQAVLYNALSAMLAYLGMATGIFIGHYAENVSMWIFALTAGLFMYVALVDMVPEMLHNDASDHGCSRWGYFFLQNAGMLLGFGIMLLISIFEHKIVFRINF
Assay: FACS, HEK293/Cyno_LIV-1 cells
# key: entry, value: Top (MFI)
Answer format: numeric, MFI implied, no suffix.

# Binder, Endpoint unit, Top (MFI)
measured = [
    ("69B3D6 (antibody, V domains shown, Tested as chimeric antibody) VH: QVQLQQSGPELVKPGASVRISCKASGYTFTSYHMHWVKQRPGQGLEWIGWIYPGNVKNQSNEKFKGKATLTADKSSSTAYMQLSSLTSEDSAVYFCARSDITRAFFAYWGQGTLVTVSA VL: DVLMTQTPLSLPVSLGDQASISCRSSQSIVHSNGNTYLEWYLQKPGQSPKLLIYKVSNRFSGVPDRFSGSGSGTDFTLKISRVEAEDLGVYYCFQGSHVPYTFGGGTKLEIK", "MFI", 6600),
]

Input line: Given 282G5A2 (antibody, V domains shown, Tested as chimeric antibody) VH: QVQLQQSGAELVRPGTSVKVSCKASGYALTKYLIEWIKQRPGQGLEWIGVINPGNAGNNYNEKFKGKATLTVDQSSSTAYMQLSSLTSEDSAVYFCARRGRDYAMDNWGQGTSVTVSS VL: EIVLTQSPAIMSASLGEKVTMSCRASSSINYIYWYQQKSDASPKLWIYYTSNLAPGVPARFSGSGSGNSYSLTISSMEDEDAATYYCQQFTSSPLTFGAGTKLELK , state its recorded Top (MFI).
Output line: 13000

Input line: Given 293F10B6 (antibody, V domains shown, Tested as chimeric antibody) VH: QVTLKESGPGMLQPSQTLNLTCSFSGFSLNTSGMGVSWIRQPSGKGLEWLAHIFWDDDKRYNPSLKSRLTISKDVSSNQVFLKITSVDTADTATYFCARRARNNYPWFPYWGQGTLVTVSA VL: DIVLTQSPASLAVSLGQRATISCKASQSVDYDGDSYMNWYQQKPGQPPKLLIYAASNLDSGIPARFSGSGSGTDFTLNIHPMEDEDVATYYCQQSNGAPFTFGGGTKLEIK , state its recorded Top (MFI).
Output line: 2250

The measured values listed here are drawn from patent US20240325555A1.
